- TEST_NAME: Displacement of [3H]EBOB from housefly head membrane GABA receptor by liquid scintillation counting
- Set-up: species or system Musca domestica
REPORTED_METRIC: IC50

[Q] For the compound `COC(=O)CCC#Cc1ccc(C(=O)Oc2ccc(C3(C(F)(F)F)N=N3)cc2[N+](=O)[O-])cc1` , what IC50 is on record?
[A] 240 nM

[Q] Quick check: IC50 of `CC(C)(C)CCOC(=O)c1ccc(C#CCCC(=O)O)cc1` ?
[A] 3410 nM
